# Test system: NCI-H23 lung
# PROTOCOL TEXT: NCI tumour cell line growth inhibition, 48 h
PROPERTY: GI50

MOLECULE	TARGET ENTITY	MEASURED VALUE
CC(=O)OCC1OC(OC2CC3C(C)(C)C(O)CC[C@]3(C)C3CCC45CC4(CC[C@H]5C(C)CC(O)C4OC4(C)C)[C@]23C)C(O)C(O)C1O (stereo partly specified)	NCI-H23 lung	12.2 µM
Cc1cc(Cc2cc(C)cc(C(C)(C)C)c2O)c(O)c(C(C)(C)C)c1	NCI-H23 lung	4.23 µM
C=CCC(N[C@H](CO)c1ccccc1)c1cn(C(=O)OCC)c2ccccc12 (stereo partly specified)	NCI-H23 lung	15.8 µM

Hello, I would appreciate it if you could give GI50 for each entry below.
1. CCN(CCCl)CCCNc1c2ccccc2nc2ccc(OC)cc12
2. CCOC(=O)/C=C/C(C(=O)/C=C/c1ccc(O)c(OC)c1)=C(O)\C=C\c1ccc(O)c(OC)c1
3. Cc1ccnc2[nH]c(-c3ccccc3)cc(=O)c12

1. 382 µM
2. 1.73 µM
3. 0.0692 µM

Hello, I would appreciate it if you could give GI50 for each entry below.
1. COc1ccc(Cl)cc1NC(=O)C(Br)C(Br)C(=O)O (stereo unspecified)
2. c1ccc(-n2nnnc2-c2cccc3ccccc23)cc1
3. CO[C@@H]1/C=C(C)/C=C/[C@@H](C)/C=C(\C)C(=O)OC(/C(C)=C/C=C(\C)CNC(=O)[C@H](CO)NC=O)[C@@H](C)/C=C/C=C/[C@H](OC)CC/C=C(C)/C=C/C1 (stereo partly specified)
4. O=c1[nH]cnc2[nH]ncc12
5. NC(=O)C#CC(N)=O
6. COc1ccc2nc3cc(Cl)ccc3c(NCCCNCCC(C)O)c2c1 (stereo unspecified)
7. N#C[S-].[Nd+3].c1ccc(-c2ccccn2)nc1.c1ccc(-c2ccccn2)nc1.c1ccc(-c2ccccn2)nc1

11.9 µM
1.28 µM
< 0.005 µM
227 µM
46.4 µM
0.36 µM
25.8 µM

Hello, I would appreciate it if you could give GI50 for each entry below.
1. c1cn2cc(-c3ccc4cn[nH]c4c3)nc(Nc3ccc(N4CCOCC4)cc3)c2n1
2. COc1ccc(-n2c3c(c4c(CN5CCOCC5)c(O)ccc42)CCc2ccccc2C3=O)cc1
3. COc1cc(/C=C2\CN(C)C/C(=C\c3cc(CN4CCCCC4)c(O)c(OC)c3)C2=O)cc(CN2CCCCC2)c1O

1: 15.2 µM; 2: 24.9 µM; 3: 5.11 µM

---

# Test system: SNB-19 CNS
# PROTOCOL TEXT: NCI tumour cell line growth inhibition, 48 h; in the data active = GI50 below about 0.43 µM; inactive = the rest
Write down the outcome that applies. Available outcomes: True for active, False for inactive

MOLECULE	DISCRETE LABEL
O=C(N/N=C/c1ccccc1O)C(=O)Nc1ccc(F)cc1	False
O=C(O)c1ccc(N/C=C2\C(=O)c3ccccc3OC2O)cc1O (configuration not stated)	False
C=C1C(=O)O[C@H]2[C@H]1CC/C(COC(=O)NCCc1c[nH]c3ccc(OC)cc13)=C\CC[C@@]1(C)O[C@@H]21	False
N#CC1=C(N)NC(=O)NC12Nc1ccccc1S2 (configuration not stated)	False
c1cn2cc(-c3ccc4cn[nH]c4c3)nc(Nc3ccc(N4CCOCC4)cc3)c2n1	False
Cc1ccc(-c2cc(C3=CC(=O)C=CC3=O)n(-c3ccc(S(N)(=O)=O)cc3)n2)cc1	False
C=C1C(=O)O[C@H]2[C@H]1CC/C(COC(=O)CSCC(=O)OC/C1=C/CC[C@@]3(C)O[C@H]3[C@H]3OC(=O)C(=C)[C@@H]3CC1)=C\CC[C@@]1(C)O[C@@H]21	False
CO[C@@H]1/C=C(C)/C=C/[C@@H](C)/C=C(\C)C(=O)OC(/C(C)=C/C=C(\C)CNC(=O)[C@H](CO)NC=O)[C@@H](C)/C=C/C=C/[C@H](OC)CC/C=C(C)/C=C/C1 (some centres not stated)	True

Now for a further molecule.
Identify the outcome logged in this assay for the molecule shown: CO[C@@H]1CC(=O)C2(CC(=O)O[C@@H]2/C=C(\C)CCC=C(C)C)C[C@@H]1O (some centres not stated)
False

---

# Test system: SW-620 colon
# PROTOCOL TEXT: NCI tumour cell line growth inhibition, 48 h
PROPERTY: TGI (µM)
One number for each entry, in µM.

# example entries with known answers
MOLECULE	PROPERTY	VALUE UNITS	MEASURED VALUE
CN(C)CCSC(=Nc1ccccc1)N1CCCCC1	TGI	µM	31.6
COc1ccc2c(c1)C(=O)/C(=C/c1ncc([N+](=O)[O-])n1C)O2	TGI	µM	0.426
CCSC1=C(C)N(C=NC(C)(C)C)CC1	TGI	µM	73.8
CN(C)C(=O)c1cc2cnc(Nc3ccc(-c4csc5c(=O)cc(N6CCOCC6)oc45)cc3)nc2n1C1CCCC1	TGI	µM	1
O=Nc1ccc2ccccc2c1O	TGI	µM	10.5

Hello, I would appreciate it if you could give TGI for each entry below.
1. CC(C)(C)C(=O)ON1N=NC2C3CC(OCc4ccccc4)(OCc4ccccc4)C(O3)C21 (configuration not stated)
2. COc1cc(/C=C2\CCC(CN(C)C)C2=O)ccc1OC(=O)c1ccccc1 (configuration not stated)
3. O=C1C(Br)=CC2(C=C1Br)CCNC1=C2C(=O)c2cccnc2C1=O
4. C=C1C(=O)OCC2C(C(=O)O)=CC3C(C)C(C)=CC123 (configuration not stated)
5. NC1=NC(c2ccc(Cl)cc2)C2=C(N1)/C(=C/c1ccc(Cl)cc1)CCC2 (configuration not stated)
6. CCCCCCCCCCCCCCCCCCNc1ccn(C2OC(COP(=O)(O)OCC3OC(n4cc(C)c(=O)[nH]c4=O)CC3N=[N+]=[N-])C(O)C2O)c(=O)n1 (configuration not stated)
7. Cc1c2c[n+](C(C)C)ccc2c(C)c2c1[nH]c1ccccc12

1. 50.7
2. 17.8
3. 27.3
4. 40.9
5. 12.4
6. 58.8
7. 49.7

---

# Tested on: KM12 colon
# PROTOCOL TEXT: NCI tumour cell line growth inhibition, 48 h
PROPERTY: TGI

# example entries with known answers
In [3]: df
Out[3]:
                                   molecule  target_entity  measured_value
0  N#C[S-].[Nd+3].c1ccc(-c2ccccn2)nc1.c1ccc(-c2ccccn2)nc1.c1ccc(-c2ccccn2)nc1     KM12 colon        > 100 µM
1  COC(=O)[C@]12CC[C@@H](C)[C@H](C)[C@@H]1C1=CC[C@@H]3[C@@]4(C)C=C(O)C(=O)[C@@]5(C)COC(=C54)C[C@@]3(C)[C@]1(C)CC2     KM12 colon         29.4 µM
2         COc1cccc(/C=C/c2cnc3ccccc3n2)c1OC     KM12 colon        > 100 µM
3                        NCCNc1cccc2ccccc12     KM12 colon        > 100 µM
4         N#Cc1c(N2CCCC2)ncn(Cc2ccccc2)c1=O     KM12 colon        > 100 µM
5  CCOC(=O)C1SC(=Nc2ccc(Cl)c(Cl)c2)N=C1C (centres undefined)     KM12 colon        > 100 µM
6                [N-]=[N+]=CC(=O)OCC1SCCCS1     KM12 colon        > 100 µM
7  O=C(N/N=C/c1cc(Cl)cc(Cl)c1[O-])c1ccccc1O.O=C(N/N=C/c1cc(Cl)cc(Cl)c1[O-])c1ccccc1O.[Ni+2]     KM12 colon         5.66 µM

// moving on: another record for TGI
Observed TGI on KM12 colon, entry `O=C(N/N=C/c1ccc([N+](=O)[O-])cc1)c1ccc2nc(-c3ccc(Cl)cc3)[nH]c2c1` , equals 13 µM

---

Give measured TGI for each item. Keep answers brief.
# System: CCRF-CEM leukemia
# PROTOCOL TEXT: NCI tumour cell line growth inhibition, 48 h

# example entries with known answers
>>> df
                                   compound      target_entity  measured_value
0                [N-]=[N+]=CC(=O)OCC1SCCCS1  CCRF-CEM leukemia        > 100 µM
1  COc1cc2cc(C(=O)N3CC(COS(C)(=O)=O)c4c3cc(N)c3ccccc43)[nH]c2c(OC)c1OC (stereo not given)  CCRF-CEM leukemia        > 100 µM
2           O=S1(=O)c2ccccc2C(=NO)c2ccccc21  CCRF-CEM leukemia        > 100 µM

Hello, I would appreciate it if you could give TGI for each entry below.
1. COc1ccc(-c2ccc(-c3ccc(-c4ccc(C(=N)N)cc4)s3)s2)cc1OC
2. C#Cc1c(C(N)=O)ncn1C1OC(COP(=O)(OCc2ccc([N+](=O)[O-])o2)N(C)CCCCCl)C(O)C1O (stereo not given)
3. NC(=O)c1ccc2c(c1)S(=O)(=O)c1ccccc1C2=O
4. O=c1c2cc(I)ccc2nc(Sc2ncccc2[N+](=O)[O-])n1Cc1ccccc1

["6.4 µM", "> 100 µM", "> 100 µM", "> 100 µM"]
